measurement.label: melting point

Fill blank: measured melting point of the compound CC1(C)C(C=NO)=[N+]([O-])C(C)(C)N1O is ____.
157 to 159 °C

Fill blank: measured melting point of the compound CC(=O)Nc1ccc(C(C)=O)c(O)c1 is ____.
143 to 145 °C

Fill blank: measured melting point of the compound O=Cc1cc([N+](=O)[O-])ccc1N1CCCC1 is ____.
136 to 138 °C

Fill blank: measured melting point of the compound NS(=O)(=O)c1cc(Cl)cc(Cl)c1 is ____.
170 to 172 °C

Fill blank: measured melting point of the compound O=Cc1cccc(N2CCCC2)n1 is ____.
63 to 65 °C

Fill blank: measured melting point of the compound Cn1c(SCC(=O)O)nnc1-c1ccc2ncccc2c1 is ____.
238 to 239 °C

Fill blank: measured melting point of the compound O=C(O)c1ccc(-c2ccc(Cl)cc2)o1 is ____.
198 to 201 °C
